Biological target: CAT1 (cationic amino acid transporter 1, CAT1/SLC7A1) (Homo sapiens, UniProt P30825)
Construct: full-length human transporter stably transfected in HEK cells (HEK-CAT1); net uptake against HEK-VC vector control cells
Sequence (P30825 whole entry): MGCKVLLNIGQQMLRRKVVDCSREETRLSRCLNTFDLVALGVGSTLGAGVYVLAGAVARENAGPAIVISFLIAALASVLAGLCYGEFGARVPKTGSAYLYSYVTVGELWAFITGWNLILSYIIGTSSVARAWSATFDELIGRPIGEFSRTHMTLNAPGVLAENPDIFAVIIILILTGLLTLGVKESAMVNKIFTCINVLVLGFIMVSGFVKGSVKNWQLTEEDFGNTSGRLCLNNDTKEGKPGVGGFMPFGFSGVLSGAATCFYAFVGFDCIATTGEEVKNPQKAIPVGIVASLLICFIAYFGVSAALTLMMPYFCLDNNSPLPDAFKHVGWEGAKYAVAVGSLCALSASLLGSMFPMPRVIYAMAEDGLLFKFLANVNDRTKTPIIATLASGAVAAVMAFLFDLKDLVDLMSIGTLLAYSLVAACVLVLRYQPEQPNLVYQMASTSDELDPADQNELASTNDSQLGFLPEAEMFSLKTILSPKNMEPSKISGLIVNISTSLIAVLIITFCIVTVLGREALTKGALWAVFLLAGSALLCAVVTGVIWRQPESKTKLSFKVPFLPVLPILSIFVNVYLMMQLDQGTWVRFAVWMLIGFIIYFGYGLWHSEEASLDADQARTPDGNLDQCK
Test: cell-based
Design: species or system HEK-CAT1 (HEK293 stably transfected); Inhibition of net CAT1-mediated [3H]-L-homoarginine (1 uM) uptake, 2.5 min, scintillation counting, vector control subtracted
Conditions: HEK293; L-homoarginine 1 uM as substrate; read-out: % Inhibition of L-homoarginine uptake at 200 µM
Items are presented alongside their recorded inhibition at 200 µM.
MEASURED QUANTITY: inhibition at 200 µM (%)

MOLECULE: OCCN1CCN(CCCN2c3ccccc3C=Cc3ccccc32)CC1 [Opipramol]
MEASURED QUANTITY: inhibition at 200 µM
UOM: %
QUANTITATIVE READOUT: 29.5
--
MOLECULE: c1c[nH]cn1 [Imidazole]
MEASURED QUANTITY: inhibition at 200 µM
UOM: %
QUANTITATIVE READOUT: -10.8
--
MOLECULE: CCCC(CCC)C(=O)O [Valproic acid]
MEASURED QUANTITY: inhibition at 200 µM
UOM: %
QUANTITATIVE READOUT: -9.5
--
MOLECULE: C[C@]12C=CC(=O)C=C1CC[C@@H]1[C@@H]2[C@@H](O)C[C@@]2(C)[C@H]1CC[C@]2(O)C(=O)CO [Prednisolone]
MEASURED QUANTITY: inhibition at 200 µM
UOM: %
QUANTITATIVE READOUT: -16.5
--
MOLECULE: C#C[C@]1(O)CC[C@H]2[C@@H]3CCC4=CC(=O)CC[C@@H]4[C@H]3CC[C@@]21C [Norethindrone]
MEASURED QUANTITY: inhibition at 200 µM
UOM: %
QUANTITATIVE READOUT: -12.8
--
MOLECULE: CCCC1O[C@@H]2C[C@H]3[C@@H]4CCC5=CC(=O)C=C[C@]5(C)[C@H]4[C@@H](O)C[C@]3(C)[C@]2(C(=O)CO)O1 (stereo partly drawn) [Budesonide]
MEASURED QUANTITY: inhibition at 200 µM
UOM: %
QUANTITATIVE READOUT: -4.9

* * *

Target: CAT1 (cationic amino acid transporter 1, CAT1/SLC7A1) (Homo sapiens)
Construct: full-length human transporter stably transfected in HEK cells (HEK-CAT1); net uptake against HEK-VC vector control cells
Assay: cell-based
Parameters: species or system HEK-CAT1 (HEK293 stably transfected); Inhibition of net CAT1-mediated [3H]-ADMA (1 uM) uptake, 2.5 min, scintillation counting, vector control subtracted
Details: HEK293; ADMA 1 uM as substrate; read-out: % Inhibition of ADMA uptake at 20 µM

COMPOUND: NC12CC3CC(CC(C3)C1)C2 [Amantadine]
inhibition at 20 µM / %: 5.3
//
COMPOUND: CCCc1nc(C(C)(C)O)c(C(=O)O)n1Cc1ccc(-c2ccccc2-c2nnn[nH]2)cc1 [Olmesartan]
inhibition at 20 µM / %: -13.2
//
COMPOUND: CC(=O)Nc1ccc(O)cc1 [Acetaminophen]
inhibition at 20 µM / %: -14.7
//
COMPOUND: CCCN(CCC)S(=O)(=O)c1ccc(C(=O)O)cc1 [Probenecid]
inhibition at 20 µM / %: -24.9
//
COMPOUND: CO[C@H]1/C=C/O[C@@]2(C)Oc3c(C)c(O)c4c(O)c(c(/C=N/N5CCN(C)CC5)c(O)c4c3C2=O)NC(=O)/C(C)=C\C=C\[C@H](C)[C@H](O)[C@@H](C)[C@@H](O)[C@@H](C)[C@H](OC(C)=O)[C@@H]1C [Rifampicin]
inhibition at 20 µM / %: -5.5
//
COMPOUND: Cc1ccc(-c2ncc(Cl)cc2-c2ccc(S(C)(=O)=O)cc2)cn1 [Etorixocib]
inhibition at 20 µM / %: -17.2
//
COMPOUND: CCN(CC)CCCC(C)Nc1ccnc2cc(Cl)ccc12 (stereo not drawn) [Chloroquine]
inhibition at 20 µM / %: -27
//
COMPOUND: C[C@]12CC[C@@H]3c4ccc(O)cc4CC[C@H]3[C@@H]1CC[C@@H]2O [Beta estradiol]
inhibition at 20 µM / %: -9.8
//
COMPOUND: CC(C)OC(=O)C(C)(C)Oc1ccc(C(=O)c2ccc(Cl)cc2)cc1 [Fenofibrate]
inhibition at 20 µM / %: -4.8
